target: 17-beta-hydroxysteroid-dehydrogenase (Cochliobolus lunatus); test: Inhibitory activity against 17 beta-hydroxysteroid dehydrogenase catalysed oxidation reaction; set-up: species or system Curvularia lunata
Assignment: determine reported IC50 for the given compounds.
One number for each entry, in µM.

| Compound | Tested System | Readout Units | IC50 |
| --- | --- | --- | --- |
| O=C(/C=C/c1ccccc1)Oc1cccc2ccccc12 | 17-beta-hydroxysteroid-dehydrogenase (Cochliobolus lunatus) | µM | 10 |
| COc1cc(COC(=O)/C=C/c2ccccc2)cc(OC)c1OC | 17-beta-hydroxysteroid-dehydrogenase (Cochliobolus lunatus) | µM | 14 |

# batch size: 8; output IC50 per entry
1. COc1cccc(OC(=O)/C=C/c2ccccc2)c1
2. O=C(OCc1ccccc1)c1cc2ccccc2oc1=O
3. O=C(/C=C/c1ccccc1)OCCN1C(=O)c2ccccc2C1=O
4. O=C(/C=C/c1ccccc1)OCN1C(=O)c2ccccc2C1=O
5. O=C(/C=C/c1ccccc1)OCc1cccc(Oc2ccccc2)c1
6. N#Cc1ccc(OC(=O)/C=C/c2ccccc2)cc1
7. O=C(/C=C/c1ccccc1)OCc1ccccc1 [BENZYL CINNAMATE]
8. O=C(/C=C/c1ccccc1)Oc1ccccc1 [PHENYL CINNAMATE]

135
2.7
5
10
130
13
0.7
26

* * *

Assignment: determine reported pIC50 for the given compounds.
Biological target: 17-beta-hydroxysteroid-dehydrogenase (Cochliobolus lunatus, UniProt O93874)
Sequence (O93874 whole entry): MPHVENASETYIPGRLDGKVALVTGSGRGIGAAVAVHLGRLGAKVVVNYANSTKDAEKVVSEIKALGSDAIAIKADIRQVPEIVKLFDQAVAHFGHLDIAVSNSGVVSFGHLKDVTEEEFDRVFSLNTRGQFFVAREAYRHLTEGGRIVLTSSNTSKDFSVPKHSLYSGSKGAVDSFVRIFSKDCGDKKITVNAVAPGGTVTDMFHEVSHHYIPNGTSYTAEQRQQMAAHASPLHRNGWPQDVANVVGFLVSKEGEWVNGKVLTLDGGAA
Assay: Inhibitory activity against 17 beta-hydroxysteroid dehydrogenase catalysed reduction reaction
Set-up: species or system Curvularia lunata
Details: read-out: IC50
Numbers only, as −log10 of the molar value.

Here is how some compounds turned out for pIC50.
| Compound | pIC50 |
| --- | --- |
| O=C(OCc1ccccc1)c1cc2ccccc2oc1=O | 5.10 |
| O=C(/C=C/c1ccccc1)OCc1ccccc1 [BENZYL CINNAMATE] | 5.15 |

Assign pIC50 to the following record: `O=C(/C=C/c1ccccc1)OCCN1C(=O)c2ccccc2C1=O` 4.05

* * *

Target: 17-beta-hydroxysteroid-dehydrogenase (Cochliobolus lunatus, UniProt O93874)
Sequence (O93874 whole entry): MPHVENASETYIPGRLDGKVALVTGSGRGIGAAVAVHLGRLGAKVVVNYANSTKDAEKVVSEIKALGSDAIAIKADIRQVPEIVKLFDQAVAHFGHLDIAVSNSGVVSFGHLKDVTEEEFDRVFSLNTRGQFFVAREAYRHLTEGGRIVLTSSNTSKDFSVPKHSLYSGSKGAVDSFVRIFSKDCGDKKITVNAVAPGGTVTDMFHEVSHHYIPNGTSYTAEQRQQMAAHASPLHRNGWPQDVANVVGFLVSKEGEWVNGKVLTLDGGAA
Assay: Inhibitory activity against 17 beta-hydroxysteroid dehydrogenase catalysed reduction reaction
Design: species or system Curvularia lunata
Settings: read-out: IC50
pIC50: −log10 of the molar value.
Assay Readout: pIC50

Here is how some molecules turned out for pIC50.
| Molecule | pIC50 |
| --- | --- |
| O=C(/C=C/c1ccccc1)Oc1ccccc1 [PHENYL CINNAMATE] | < 3.70 |
| CCCCCCCC(=O)Nc1ccc(OC(=O)/C=C/c2ccccc2)cc1 | < 3.70 |

Here is another molecule to look at.
Assign pIC50 to the following record: `CC(=O)Nc1ccc(OC(=O)/C=C/c2ccccc2)cc1` < 3.70
